Values were extracted from paper PMC11284600.

# Test system: CYP1A-like ethoxyresorufin O-deethylase (EROD) activity
# assay_remarks: in vitro
# stated_conditions: both, Christophersen, Bornhoeved, rainbow trout (Oncorhynchus mykiss), pH 7.8, EROD inhibition in RT-S9, Unbound IC50
# Experimental: Commercially available rainbow trout (O. mykiss) liver S9 fractions were used as the enzyme source for the in vitro P450 inhibition assays (RTL-S9, total protein concentration 20 mg/mL, Primacyt Cell Culture Technology GmbH). The inhibitory impacts of the test substances toward the rainbow trout liver P450 system in vitro were assessed based on EROD and BFCOD as the marker reactions for CYP1A- and CYP3A-like isoenzyme activities, respectively. […]
Where a name gives a salt, the structure may show the parent alone.
property_label: IC50 at 10 min (µM)
Answer with a number only, understood to be in µM.

IC50 at 10 min reading for COc1ccc2nc([S@@+]([O-])Cc3ncc(C)c(OC)c3C)[nH]c2c1 [Esomeprazole, esomeprazole magnesium hydrate] : 3

Form field IC50 at 10 min, entry CN1CCCC(n2nc(Cc3ccc(Cl)cc3)c3ccccc3c2=O)CC1 (stereo not shown) [Azelastine, azelastine hydrochloride] : 3.8

IC50 at 10 min measured on CNCC[C@@H](Oc1ccccc1C)c1ccccc1 [Atomoxetine, atomoxetine hydrochloride] = 20

---

# assay_remarks: Unbound fraction in RT-S9 by rapid equilibrium dialysis
# Type: in vitro ADME, rainbow trout (Oncorhynchus mykiss)
# stated_conditions: rainbow trout liver S9 fractions (RT-S9), 10 µM test substance, 1 mg/mL RT-S9, pH 7.8, 11°C, n = 3, read-out: Unbound fraction (fU,RT-S9)
Counter-ions that a name gives are not always drawn.
What fraction unbound at 4 h, 10 µM was measured for each of the following?
Response field accepts a number only; no unit should be typed.

Please fill in: fraction unbound at 4 h, 10 µM reported for CNCC[C@@H](Oc1ccccc1C)c1ccccc1 [Atomoxetine, atomoxetine hydrochloride] = 0.2

So for OCCOCCN1CCN(C2=Nc3ccccc3Sc3ccccc32)CC1 [Quetiapine, quetiapine hemihumarate] , the logged fraction unbound at 4 h, 10 µM turned out to be 0.24

The measured fraction unbound at 4 h, 10 µM associated with `CN1CCN(C2=Nc3cc(Cl)ccc3Nc3ccccc32)CC1` reads 0.21

Recorded result, O=C(NCC1CCCCN1)c1cc(OCC(F)(F)F)ccc1OCC(F)(F)F (stereo not drawn) [Flecainide, flecainide acetate] , fraction unbound at 4 h, 10 µM: 0.36

# fraction unbound at 4 h, 10 µM (molecule: Cc1ccccc1C(OCCN(C)C)c1ccccc1 (stereo not drawn) [Orphenadrine, orphenadrine citrate] ) is 0.27

Reported fraction unbound at 4 h, 10 µM ( COc1ccc2nc([S@@+]([O-])Cc3ncc(C)c(OC)c3C)[nH]c2c1 [Esomeprazole, esomeprazole magnesium hydrate] ) = 0.36

// recorded fraction unbound at 4 h, 10 µM for `CCN(CC)C(=S)SSC(=S)N(CC)CC` : 0.91

The molecule identified as CN1CCCC(n2nc(Cc3ccc(Cl)cc3)c3ccccc3c2=O)CC1 (stereo not drawn) [Azelastine, azelastine hydrochloride] registered its fraction unbound at 4 h, 10 µM at 0.14

Lab note: `Clc1ccc2c(c1)CCc1cccnc1C2=C1CCNCC1` gave fraction unbound at 4 h, 10 µM of 0.15

---

# assay_remarks: Unbound fraction in RT-S9 by rapid equilibrium dialysis
# Type: in vitro ADME, rainbow trout (Oncorhynchus mykiss)
# stated_conditions: rainbow trout (Oncorhynchus mykiss), 10 µM test substance, 1 mg/mL RT-S9, pH 7.8, 11°C, n = 3, read-out: Unbound fraction (fU,RT-S9)
Structures can show the parent of a compound that is named as a salt.
property_label: fraction unbound at 4 h, 10 µM

Please fill in: fraction unbound at 4 h, 10 µM reported for Cc1ncsc1CCCl [Clomethiazole, clomethiazole hydrochloride] = > 0.9

---

# System: CYP1A-like ethoxyresorufin O-deethylase (EROD) activity
# assay_remarks: in vitro
# stated_conditions: both, Christophersen, Bornhoeved, rainbow trout (Oncorhynchus mykiss), pH 7.8
Where a name gives a salt, the structure may show the parent alone.
Answer each item with its documented inhibition at 10 min.

Record CNCC[C@@H](Oc1ccccc1C)c1ccccc1 [Atomoxetine, atomoxetine hydrochloride] has CYP1A-like ethoxyresorufin O-deethylase (EROD) activity inhibition at 10 min equal to ≤ 50%

Tested on CYP1A-like ethoxyresorufin O-deethylase (EROD) activity: CN1CCCC(n2nc(Cc3ccc(Cl)cc3)c3ccccc3c2=O)CC1 (stereo not drawn) [Azelastine, azelastine hydrochloride] . Observed inhibition at 10 min: > 50%

Result for O=C(NCC1CCCCN1)c1cc(OCC(F)(F)F)ccc1OCC(F)(F)F (stereo not drawn) [Flecainide, flecainide acetate] , tested on CYP1A-like ethoxyresorufin O-deethylase (EROD) activity, inhibition at 10 min: ≤ 50%

// inhibition at 10 min (CYP1A-like ethoxyresorufin O-deethylase (EROD) activity) for `CN1CCN(C2=Nc3cc(Cl)ccc3Nc3ccccc32)CC1` = > 50%

For the compound COc1ccc2nc([S@@+]([O-])Cc3ncc(C)c(OC)c3C)[nH]c2c1 [Esomeprazole, esomeprazole magnesium hydrate] , the measured inhibition at 10 min on CYP1A-like ethoxyresorufin O-deethylase (EROD) activity was > 50%

Form field inhibition at 10 min for item COc1cc2nc(N3CCN(C(=O)c4ccco4)CC3)nc(N)c2cc1OC [Prazosin, prazosin hydrochloride] on CYP1A-like ethoxyresorufin O-deethylase (EROD) activity: > 50%

---

# Test system: CYP1A-like EROD activity
# assay_remarks: in vitro
# stated_conditions: both, Christophersen, Bornhoeved, rainbow trout (Oncorhynchus mykiss), s9, pH 7.8, EROD inhibition in RT-S9, IC50 shift (A/C)
Counter-ions that a name gives are not always drawn.
Would you kindly list IC50 shift at 10 min for each of these compounds?
The answer should be a number; do not append a unit.

response.value for CNCC[C@@H](Oc1ccccc1C)c1ccccc1 [Atomoxetine, atomoxetine hydrochloride] (field: IC50 shift at 10 min) = 1.1

Record COc1ccc2nc([S@@+]([O-])Cc3ncc(C)c(OC)c3C)[nH]c2c1 [Esomeprazole, esomeprazole magnesium hydrate] , field IC50 shift at 10 min: 1.7

---

Give IC50 at 20 min for every item shown.
# assay_target: CYP3A-like BFCOD activity (Oncorhynchus mykiss)
# assay_remarks: BFCOD inhibition in RT-S9 (IC50 shift assay)
# stated_conditions: both, Christophersen, Bornhoeved, rainbow trout (Oncorhynchus mykiss), s9, pH 7.8
Where a name gives a salt, the structure may show the parent alone.

// sample CNCC[C@@H](Oc1ccccc1C)c1ccccc1 [Atomoxetine, atomoxetine hydrochloride] , its IC50 at 20 min was > 25 µM

Form: compound = COc1cc2nc(N3CCN(C(=O)c4ccco4)CC3)nc(N)c2cc1OC [Prazosin, prazosin hydrochloride] ; IC50 at 20 min = > 25 µM

Looking up CN1CCCC(n2nc(Cc3ccc(Cl)cc3)c3ccccc3c2=O)CC1 (centres unmarked) [Azelastine, azelastine hydrochloride] , I see its IC50 at 20 min listed as > 100 µM

So, COc1ccc2nc([S@@+]([O-])Cc3ncc(C)c(OC)c3C)[nH]c2c1 [Esomeprazole, esomeprazole magnesium hydrate] ? Its IC50 at 20 min was > 100 µM

Noted for O=C(NCC1CCCCN1)c1cc(OCC(F)(F)F)ccc1OCC(F)(F)F (centres unmarked) [Flecainide, flecainide acetate] : its IC50 at 20 min reads > 25 µM

---

# assay_target: CYP3A-like BFCOD activity (Oncorhynchus mykiss, UniProt O42563)
# Sequence (O42563 1-518): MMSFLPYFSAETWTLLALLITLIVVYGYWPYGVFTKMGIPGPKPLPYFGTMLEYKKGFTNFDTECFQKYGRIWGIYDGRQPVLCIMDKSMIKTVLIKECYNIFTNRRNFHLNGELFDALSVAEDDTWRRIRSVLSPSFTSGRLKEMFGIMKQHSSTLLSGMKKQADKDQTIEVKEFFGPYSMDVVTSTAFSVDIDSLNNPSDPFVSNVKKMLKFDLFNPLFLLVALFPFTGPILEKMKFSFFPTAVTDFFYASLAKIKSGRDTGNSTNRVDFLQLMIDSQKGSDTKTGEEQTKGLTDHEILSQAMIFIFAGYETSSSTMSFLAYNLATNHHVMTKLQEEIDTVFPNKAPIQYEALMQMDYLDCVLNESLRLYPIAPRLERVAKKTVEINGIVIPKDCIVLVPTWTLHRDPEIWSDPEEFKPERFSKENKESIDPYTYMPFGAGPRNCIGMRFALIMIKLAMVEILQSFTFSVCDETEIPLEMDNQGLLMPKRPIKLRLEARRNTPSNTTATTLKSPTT
# assay_remarks: BFCOD inhibition in RT-S9 (IC50 shift assay)
# stated_conditions: both, Christophersen, Bornhoeved, rainbow trout (Oncorhynchus mykiss), s9, pH 7.8, BFCOD inhibition in RT-S9, IC50 shift (A/B), IC50 Protocol A / IC50 Protocol B; TDI if ≥1.5
property_label: IC50 shift at 20 min
No unit in the answer, only the number.

Consider COc1ccc2nc([S@@+]([O-])Cc3ncc(C)c(OC)c3C)[nH]c2c1 [Esomeprazole, esomeprazole magnesium hydrate] . Its measured IC50 shift at 20 min is 1.2
